The values you see were collected from patent US8859549B2.

Would you mind telling me the reported Emax of each entry?
molecular target: KCNQ 2/3 channels (Homo sapiens, UniProt O43525+O43526); construct: expressed in transfected cells; host or cells: HEK293; assay: KCNQ 2/3 channel activation, thallium flux FLIPR assay (BTC-AM dye); assay type: cell-based; conditions: HEK293, maximum response relative to the response of 10 μM retigabine (set at 100%); HEK293 KCNQ2/KCNQ3 cells; read-out: % MAX
// return numeric value only (unit: %, not printed)

Ask: Kindly state the measured Emax obtained for "O=C(Cc1cc(F)cc(F)c1)Nn1nc(S(=O)(=O)c2ccc(Br)cc2)c2ccccc2c1=O" with KCNQ 2/3 channels (Homo sapiens, UniProt O43525+O43526).
Reply: 106

Ask: Also "N#Cc1ccc(S(=O)(=O)c2nn(NC(=O)Cc3cc(F)cc(F)c3)c(=O)c3ccccc23)cc1" ?
Reply: 86.2

Ask: Again, but for "O=C(Cc1ccc(Cl)cc1)Nn1nc(S(=O)(=O)c2ccncc2)c2ccccc2c1=O"
Reply: 85

Ask: Likewise for "O=C(Cc1cccc(Br)c1)Nn1nc(N2CCOCC2)c2ccccc2c1=O" ?
Reply: 114

Ask: Moving on to "O=C(Cc1ccc(Cl)cc1)Nn1nc(CCO)c2ccccc2c1=O"
Reply: 10.5

Ask: Same question, "CCOC(=O)Cc1nn(NC(=O)Cc2ccc(Cl)cc2)c(=O)c2ccccc12" this time
Reply: 61.4

Ask: Next compound: "Cc1ccsc1-c1nn(NC(=O)C[C@@H]2C[C@@H]3C=C[C@H]2C3)c(=O)c2ccccc12"
Reply: 139

Ask: Can you handle O=C(CC1CC2CCC1C2)Nn1nc(Cc2ccncc2)c2ccccc2c1=O (racemic) next?
Reply: 173

Ask: Please give the result for O=C(CC1CC2CCC1C2)Nn1nc(C2CCOCC2)c2ccccc2c1=O (racemic) too.
Reply: 145

Ask: What would you report for O=C(CC1CCOC1)Nn1nc(-c2ccnc(Cl)c2)c2ccccc2c1=O (stereo not drawn) ?
Reply: 6.78

Ask: Now give it for "COc1cccc(CC(=O)Nn2nc(N3CCOCC3)c3ccccc3c2=O)c1" too.
Reply: 17.6

Ask: Another: O=C(CC1CC2CCC1C2)Nn1nc(S(=O)(=O)Cc2ccccc2)c2ccccc2c1=O (racemic)
Reply: 147

Ask: Try this compound too: "O=C(Cc1ccccc1)Nn1nc(N2CCOCC2)c2ccccc2c1=O"
Reply: 70.7

Ask: Please give the result for CC(C(=O)NC(C)(C)C)c1nn(NC(=O)Cc2ccc(Cl)cc2)c(=O)c2ccccc12 (stereo not drawn) too.
Reply: 17.1

Ask: Please do the same for "O=C(Cc1ccc(Cl)c(Cl)c1)Nn1nc(N2CCOCC2)c2ccccc2c1=O" as well.
Reply: 131

Ask: Okay, and O=C(CC1CC2CCC1C2)Nn1nc(C(O)c2ccccc2)c2ccccc2c1=O (racemic) ?
Reply: 212

Ask: Another compound to check: O=C(CC1CC2CCC1C2)Nn1nc(-c2cccs2)c2ccccc2c1=O (racemic)
Reply: 136

Ask: Now the compound Cc1cc(-c2nn(NC(=O)CC3CC4CCC3C4)c(=O)c3ccccc23)ccn1 (racemic)
Reply: 151

Ask: How about this compound: "COc1cccc(CC(=O)Nn2nc(S(=O)(=O)c3ccccc3)c3ccccc3c2=O)c1"
Reply: 71.8

Ask: Also check CCC1CN(c2nn(NC(=O)Cc3ccc(Cl)cc3)c(=O)c3ccccc23)CCO1 (stereo not drawn)
Reply: 101

Ask: Input "CC(C)(C)OC(=O)NCc1nn(NC(=O)C[C@@H]2CC[C@H]3C[C@@H]2C3(C)C)c(=O)c2ccccc12"
Reply: 33.9

Ask: Same question, COC(=O)c1cc(-c2nn(NC(=O)CC3CC4CCC3C4)c(=O)c3ccccc23)ccn1 (racemic) this time
Reply: 21.8

Ask: Now the compound "O=C(Cc1ccc(Cl)cc1)Nn1nc(S(=O)(=O)c2ccccc2)c2ccccc2c1=O"
Reply: 118

Ask: What about "O=C(CC12CC3CC(CC1C3)C2)Nn1nc(N2CCOCC2)c2ccccc2c1=O" ?
Reply: 154
